# Ki values compiled below
# assay.target: hCA IX (Homo sapiens)
# protocol.details: stopped flow carbon dioxide hydrase assay, hCA IX
Express the result in nM but write the number alone.

Please review the entries below; each comes with its answer.
1) NS(=O)(=O)c1ccccc1Nc1ccnc2ccc(Cl)cc12 : 65.6
2) COc1ccc2nccc(Nc3ccc(C)c(S(N)(=O)=O)c3)c2c1 [11f] : 853
3) COc1ccc2nccc(NNC(=O)c3ccc(S(N)(=O)=O)cc3)c2c1 : 21.7

[Q] Would you kindly share the measured Ki for NS(=O)(=O)c1ccc(Nc2ccnc3ccc(Cl)cc23)cc1 [13c] ?
[A] 18.6

[Q] Try this molecule too: COc1ccc2nccc(Nc3ccccc3S(N)(=O)=O)c2c1
[A] 39.2

[Q] Further, for Cc1ccc2nccc(Nc3ccc(S(N)(=O)=O)cc3)c2c1 [13a] ?
[A] 25.8
